Molecular target: T1, hIL-18Rα ECD-Fc fusion protein (human, UniProt Q13478 22-329)
T1 construct: extracellular domain; captured on Protein A sensor
T1 sequence (looked up): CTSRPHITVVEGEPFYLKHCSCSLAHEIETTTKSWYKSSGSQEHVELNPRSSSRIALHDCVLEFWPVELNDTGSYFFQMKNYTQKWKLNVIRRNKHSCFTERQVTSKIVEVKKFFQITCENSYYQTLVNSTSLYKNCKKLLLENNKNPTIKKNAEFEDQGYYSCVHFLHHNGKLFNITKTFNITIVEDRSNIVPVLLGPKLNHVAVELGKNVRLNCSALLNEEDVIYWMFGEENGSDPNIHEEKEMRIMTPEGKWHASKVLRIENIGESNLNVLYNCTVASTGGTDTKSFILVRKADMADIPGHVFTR
Test: BLI (Octet RED96), hIL-18Rα ECD-Fc on Protein A sensor
Method: The affinities of IL-18 variant polypeptides for hIL-18Rα were assessed by Biolayer Interferometry (BLI) on Octet RED96 using Protein A sensor coated with hIL-18Rα ECD-Fc fusion protein, and WT hIL-18 was used as a control.
Examples of binders with documented Kd follow.
Numeric answer plus unit only.

Here's what some known entries look like.
BINDER: IL-18 variant polypeptide LM4 (ligand, soluble, E. coli-made) YFPKLKSKLSVIRNLNDQVLFIDQGNRPLFEDMTDSDCRDNAPRTIFIISMYKHSYSRGMAVTISVKCEKISTLSCENKIISFKEMNPPDNIKDTKSDIIFFQRSVPGHDNKMQFESSSYEGYFLACEKERDLFKLILKKEDELGDRSIMFTVQNED
Kd: 4.17 nM
--
BINDER: IL-18 variant polypeptide M27 (ligand) YFPKLRSKLSVIRNLNDQVLFIDQGNRPLFEDMTDSDCRDNAPRTIFIISMYKHSYTRGMAVTISVKCEKISTLSCENKIISFKEMNPPDVIKDTKSDIIFFQYSVPGHDNKMQFESSSYEGYFLACEKERDLFKLILKKEDELGDRSIMFTVQNED
Kd: 45.9 nM

Req: Bench note: what Kd did IL-18 variant polypeptide M17 (ligand) YFPKLRSKLSVIRNLNDQVLFIDQGNRPLFEDMTDSDCRDNAPRTIFIISMYKLSTARGMAVTISVKCEKISTLSCENKIISFKEMNPPDGIKDTKSDIIFFQRSVPGHDNKMQFESSSYEGYFLACEKERDLFKLILKKEDELGDRSIMFTVQNED show?
Resp: 67.7 nM

Data origin, for the record: patent US20260092093A1
